Recorded values, source paper PMC3093256.

Reported values of fold more potent against topoisomerase II compared to etoposide for individual entries
tested.target: human DNA topoisomerase II (Homo sapiens, UniProt P11388)
Construct: purchased TopoGen
Sequence (P11388 whole entry): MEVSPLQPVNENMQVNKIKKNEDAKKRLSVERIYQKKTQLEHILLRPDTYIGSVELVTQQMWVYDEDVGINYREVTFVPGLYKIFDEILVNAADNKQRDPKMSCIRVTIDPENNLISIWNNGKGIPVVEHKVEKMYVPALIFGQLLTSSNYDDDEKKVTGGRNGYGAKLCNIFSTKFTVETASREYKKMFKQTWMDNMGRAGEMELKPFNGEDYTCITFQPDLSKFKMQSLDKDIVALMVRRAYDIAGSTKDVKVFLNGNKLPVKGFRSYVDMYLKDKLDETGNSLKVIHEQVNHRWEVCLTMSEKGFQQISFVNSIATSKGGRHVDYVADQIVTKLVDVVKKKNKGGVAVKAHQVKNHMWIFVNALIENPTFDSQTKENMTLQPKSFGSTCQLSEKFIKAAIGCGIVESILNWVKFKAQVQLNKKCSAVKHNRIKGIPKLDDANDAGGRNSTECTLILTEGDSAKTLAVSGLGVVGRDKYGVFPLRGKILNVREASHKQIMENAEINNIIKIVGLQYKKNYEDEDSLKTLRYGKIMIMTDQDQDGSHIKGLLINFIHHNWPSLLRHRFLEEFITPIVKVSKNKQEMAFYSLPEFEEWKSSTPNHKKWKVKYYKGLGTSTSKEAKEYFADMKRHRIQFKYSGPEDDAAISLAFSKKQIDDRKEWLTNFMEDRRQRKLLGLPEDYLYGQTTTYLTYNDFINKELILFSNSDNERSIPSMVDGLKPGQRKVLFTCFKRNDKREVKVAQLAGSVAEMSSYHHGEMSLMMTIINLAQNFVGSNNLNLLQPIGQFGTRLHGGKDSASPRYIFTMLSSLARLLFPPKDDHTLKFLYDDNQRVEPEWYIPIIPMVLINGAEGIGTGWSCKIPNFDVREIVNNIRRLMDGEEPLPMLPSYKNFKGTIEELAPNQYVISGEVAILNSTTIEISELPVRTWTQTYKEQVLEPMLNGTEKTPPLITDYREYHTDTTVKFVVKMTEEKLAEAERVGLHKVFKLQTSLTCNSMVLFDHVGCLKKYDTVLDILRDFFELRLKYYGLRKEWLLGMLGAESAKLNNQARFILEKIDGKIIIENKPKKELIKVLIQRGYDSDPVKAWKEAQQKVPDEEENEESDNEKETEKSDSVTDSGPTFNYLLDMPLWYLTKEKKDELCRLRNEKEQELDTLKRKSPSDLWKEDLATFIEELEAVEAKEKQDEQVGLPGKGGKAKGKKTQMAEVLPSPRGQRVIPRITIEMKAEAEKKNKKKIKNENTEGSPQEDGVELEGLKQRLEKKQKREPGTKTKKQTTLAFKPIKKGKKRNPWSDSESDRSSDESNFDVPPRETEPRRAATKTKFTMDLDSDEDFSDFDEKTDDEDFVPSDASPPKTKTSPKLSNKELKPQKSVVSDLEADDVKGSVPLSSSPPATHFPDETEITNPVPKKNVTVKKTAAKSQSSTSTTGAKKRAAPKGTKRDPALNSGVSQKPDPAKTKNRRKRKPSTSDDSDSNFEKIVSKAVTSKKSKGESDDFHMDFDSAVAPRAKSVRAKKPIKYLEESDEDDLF
test.description: Relaxation assay of topoisomerase II (supercoiled pBR322)
Assay type: biochemical
experimental.setup: relative to etoposide
Procedure: Topoisomerases I and II (topo I and II) assays were measured by assessing relaxation of supercoiled pBR322 plasmid DNA according to [24]. […] Finally, by a densitometer of ImageMaster® (Fujifilm thermal imaging system, FTI-500), the gels were directly scanned and the area representing supercoiled DNA was calculated.

Worked cases, fold more potent against topoisomerase II compared to etoposide given:
CCCn1c2ccccc2c2cc(C3NCCc4c3[nH]c3ccccc43)ccc21 (stereo not shown); 10- to 15 fold
CCCn1c2ccccc2c2cc(C3=NCCc4c3[nH]c3ccccc43)ccc21; 10- to 15 fold
CC(C)CCn1c2ccccc2c2cc(C3NCCc4c3[nH]c3ccccc43)ccc21 (stereo not shown); 10- to 15 fold

Let's switch to this compound now.
Exam item: What value of fold more potent against topoisomerase II compared to etoposide on human DNA topoisomerase II (Homo sapiens, UniProt P11388) does "CC(C)CCn1c2ccccc2c2cc(C3=NCCc4c3[nH]c3ccccc43)ccc21" have?
Marked response: 10- to 15 fold

###

Reported values of IC50 for individual entries
Tested on: Hepa (human hepatoma)
test.description: Cytotoxicity assay, Hepa cells
Type: cell-based
experimental.setup: 72 h, 3 days incubation, by interpolation
Write it as a number; the unit µg/mL goes unstated.

Worked cases, IC50 given:
CCC(C)n1c2ccccc2c2cc(C3=NCCc4c3[nH]c3ccccc43)ccc21 (stereo not drawn) [Compound 6]; 2.67
CC(C)CCn1c2ccccc2c2cc(C3NCCc4c3[nH]c3ccccc43)ccc21 (stereo not drawn) [Compound 9]; 1.12
CC(C)CCn1c2ccccc2c2cc(C3=NCCc4c3[nH]c3ccccc43)ccc21 [Compound 10]; 4.4

Let's switch to this molecule now.
Exam item: Please report the recorded IC50 for CCC(C)n1c2ccccc2c2cc(C3NCCc4c3[nH]c3ccccc43)ccc21 (stereo not drawn) [Compound 5] .
Marked response: 2.25

###

Tested on: KB (human mouth epidermoid carcinoma)
test.description: Cytotoxicity assay, KB cells
Format: cell-based
experimental.setup: 72 h, 3 days incubation, by interpolation
Reported values of IC50 for individual entries
Write it as a number; the unit µg/mL goes unstated.

CCC(C)n1c2ccccc2c2cc(C3=NCCc4c3[nH]c3ccccc43)ccc21 (stereo not drawn); 0.48

Exam item: What value of IC50 on KB (human mouth epidermoid carcinoma) does CC(C)CCn1c2ccccc2c2cc(C3NCCc4c3[nH]c3ccccc43)ccc21 (stereo not drawn) have?
Marked response: 2.96

Exam item: Same read-out for "CC(C)CCn1c2ccccc2c2cc(C3=NCCc4c3[nH]c3ccccc43)ccc21" ?
Marked response: 3.13

Exam item: Same read-out for CCCCCn1c2ccccc2c2cc(C3NCCc4c3[nH]c3ccccc43)ccc21 (stereo not drawn) ?
Marked response: 3.45

Exam item: Same read-out for "CCn1c2ccccc2c2cc(C3=NCCc4c3[nH]c3ccccc43)ccc21" ?
Marked response: 0.71

Exam item: Same read-out for CCC(C)n1c2ccccc2c2cc(C3NCCc4c3[nH]c3ccccc43)ccc21 (stereo not drawn) ?
Marked response: 3

Exam item: Same read-out for CCCn1c2ccccc2c2cc(C3NCCc4c3[nH]c3ccccc43)ccc21 (stereo not drawn) ?
Marked response: 1.84

Exam item: Same read-out for CCn1c2ccccc2c2cc(C3NCCc4c3[nH]c3ccccc43)ccc21 (stereo not drawn) ?
Marked response: 3.47

###

Reported values of IC50 for individual entries
tested.target: human DNA topoisomerase I (Homo sapiens)
Construct: purchased TopoGen
Sequence (P11387 1-765): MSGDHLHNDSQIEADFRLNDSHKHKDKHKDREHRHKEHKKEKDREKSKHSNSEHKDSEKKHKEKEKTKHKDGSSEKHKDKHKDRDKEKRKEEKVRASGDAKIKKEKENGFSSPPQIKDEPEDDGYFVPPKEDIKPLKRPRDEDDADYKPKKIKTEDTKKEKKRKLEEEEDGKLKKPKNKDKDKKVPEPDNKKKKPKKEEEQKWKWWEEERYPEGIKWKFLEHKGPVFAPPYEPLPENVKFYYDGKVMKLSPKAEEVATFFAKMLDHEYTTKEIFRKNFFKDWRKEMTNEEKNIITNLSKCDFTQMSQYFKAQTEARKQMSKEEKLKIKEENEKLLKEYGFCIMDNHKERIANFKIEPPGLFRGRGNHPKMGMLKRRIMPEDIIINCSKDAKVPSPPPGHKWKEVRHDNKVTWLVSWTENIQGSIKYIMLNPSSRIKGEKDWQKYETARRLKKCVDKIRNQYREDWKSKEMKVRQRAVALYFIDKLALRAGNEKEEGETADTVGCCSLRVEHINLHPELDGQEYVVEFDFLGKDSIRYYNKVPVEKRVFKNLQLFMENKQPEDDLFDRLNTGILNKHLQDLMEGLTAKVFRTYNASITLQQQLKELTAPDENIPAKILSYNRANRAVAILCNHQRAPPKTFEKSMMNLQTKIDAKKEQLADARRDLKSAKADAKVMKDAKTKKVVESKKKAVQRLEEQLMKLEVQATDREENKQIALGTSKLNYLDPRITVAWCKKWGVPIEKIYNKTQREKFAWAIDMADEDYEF
test.description: Relaxation assay of topoisomerase I (supercoiled pBR322)
Format: biochemical
experimental.setup: five concentrations 5, 10, 25, 50 and 100 μg/mL; read-out: Inhibition of DNA topoisomerase I IC50 (converted)

Worked cases, IC50 given:
CCCCCCCCCCCCCCCCCCCCn1c2ccccc2c2cc(C3NCCc4c3[nH]c3ccccc43)ccc21 (centres unmarked); > 162 µM
CCCCCn1c2ccccc2c2cc(C3=NCCc4c3[nH]c3ccccc43)ccc21; 143 µM
CCn1c2ccccc2c2cc(C3=NCCc4c3[nH]c3ccccc43)ccc21; > 275 µM
CCC(C)n1c2ccccc2c2cc(C3NCCc4c3[nH]c3ccccc43)ccc21 (centres unmarked); > 254 µM

Exam item: Please report the recorded IC50 for "CCCCCCCCCCCCCCCCCCCCn1c2ccccc2c2cc(C3=NCCc4c3[nH]c3ccccc43)ccc21" .
Marked response: > 162 µM

Exam item: Same read-out for "CC(C)CCn1c2ccccc2c2cc(C3=NCCc4c3[nH]c3ccccc43)ccc21" ?
Marked response: 165 µM

Exam item: Same read-out for "CCCCCCCCn1c2ccccc2c2cc(C3=NCCc4c3[nH]c3ccccc43)ccc21" ?
Marked response: > 223 µM

Exam item: Same read-out for CCCCCCCCCCCCCCCCn1c2ccccc2c2cc(C3NCCc4c3[nH]c3ccccc43)ccc21 (centres unmarked) ?
Marked response: > 178 µM

###

value.type: melting point

Worked cases, melting point given:
CCCCCn1c2ccccc2c2cc(C3=NCCc4c3[nH]c3ccccc43)ccc21; 97 to 98 °C
CC(C)CCn1c2ccccc2c2cc(C3=NCCc4c3[nH]c3ccccc43)ccc21; 135 to 137 °C
CCCCCCCCCCCCCCCCn1c2ccccc2c2cc(C3=NCCc4c3[nH]c3ccccc43)ccc21; 90 to 92 °C

Exam item: Please report the recorded melting point for CCCCCCCCn1c2ccccc2c2cc(C3NCCc4c3[nH]c3ccccc43)ccc21 (stereo not drawn) .
Marked response: 87 to 89 °C

Exam item: Same read-out for "CCCn1c2ccccc2c2cc(C3=NCCc4c3[nH]c3ccccc43)ccc21" ?
Marked response: 126 to 128 °C

Exam item: Same read-out for "CCCCCCCCCCCCCCCCCCCCn1c2ccccc2c2cc(C3=NCCc4c3[nH]c3ccccc43)ccc21" ?
Marked response: 91 to 93 °C

Exam item: Same read-out for CCCn1c2ccccc2c2cc(C3NCCc4c3[nH]c3ccccc43)ccc21 (stereo not drawn) ?
Marked response: 110 to 112 °C

Exam item: Same read-out for CCn1c2ccccc2c2cc(C3NCCc4c3[nH]c3ccccc43)ccc21 (stereo not drawn) ?
Marked response: 240 to 242 °C

Exam item: Same read-out for "CCn1c2ccccc2c2cc(C3=NCCc4c3[nH]c3ccccc43)ccc21" ?
Marked response: 175 to 177 °C

###

Tested on: NCI-H661 (human lung large cell carcinoma)
test.description: Cytotoxicity assay, NCI-H661 cells
Type: cell-based
experimental.setup: 72 h, 3 days incubation, by interpolation
Reported values of IC50 for individual entries

CCCCCn1c2ccccc2c2cc(C3=NCCc4c3[nH]c3ccccc43)ccc21 [Compound 8]; 3.39 µg/mL
CCCCCCCCn1c2ccccc2c2cc(C3=NCCc4c3[nH]c3ccccc43)ccc21 [Compound 12]; 5.28 µg/mL
CCCCCCCCCCn1c2ccccc2c2cc(C3=NCCc4c3[nH]c3ccccc43)ccc21 [Compound 14]; > 20 µg/mL
CCCCCCCCCCCCCCCCn1c2ccccc2c2cc(C3NCCc4c3[nH]c3ccccc43)ccc21 (centres unmarked) [Compound 15]; > 20 µg/mL

Let's switch to this molecule now.
Exam item: What value of IC50 on NCI-H661 (human lung large cell carcinoma) does CCCCCCCCCCCCCCCCn1c2ccccc2c2cc(C3=NCCc4c3[nH]c3ccccc43)ccc21 [Compound 16] have?
Marked response: > 20 µg/mL
